Listed compounds paired with reported pIC50
target: human FAAH (Homo sapiens); construct: expressed in transfected cells; test: Assay Method 1: FAAH assay, hydrolysis of 3H-anandamide by homogenate of SK-N-MC cells transfected with human FAAH; format: biochemical; settings: human FAAH; T84 or transfected SK-N-MC cell homogenate; 3H-AEA tracer 80 nM; rt 1 h; pH 9; read-out: Assay 1 IC50
Sequence (O00519 whole entry): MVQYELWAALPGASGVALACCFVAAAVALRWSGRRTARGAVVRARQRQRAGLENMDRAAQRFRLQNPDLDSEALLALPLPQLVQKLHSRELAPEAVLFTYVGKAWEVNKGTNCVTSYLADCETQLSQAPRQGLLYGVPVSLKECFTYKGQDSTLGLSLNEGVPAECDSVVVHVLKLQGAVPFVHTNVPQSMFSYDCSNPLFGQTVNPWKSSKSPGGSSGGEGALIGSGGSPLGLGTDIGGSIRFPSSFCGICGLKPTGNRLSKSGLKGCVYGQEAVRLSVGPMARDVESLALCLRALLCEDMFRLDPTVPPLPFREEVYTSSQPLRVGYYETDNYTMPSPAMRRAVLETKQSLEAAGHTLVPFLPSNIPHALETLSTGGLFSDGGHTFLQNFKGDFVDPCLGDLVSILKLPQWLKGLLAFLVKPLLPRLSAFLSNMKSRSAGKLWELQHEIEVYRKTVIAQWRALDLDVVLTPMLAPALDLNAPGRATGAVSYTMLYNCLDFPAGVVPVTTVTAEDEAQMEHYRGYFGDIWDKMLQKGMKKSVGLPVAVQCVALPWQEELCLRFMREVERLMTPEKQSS
Quick note: pIC50 values are minus log10 of concentrations in mol/L.

Known results for compounds:
{"columns": ["compound", "target", "pIC50"],
 "data": [
  ["O=C(CCCC1CCN(S(=O)(=O)Cc2ccccc2)CC1)c1ncco1 [Example 53]", "human FAAH (Homo sapiens)", 6.22],
  ["O=C(CCCC1CCN(S(=O)(=O)c2ccc(F)cc2)CC1)c1ncco1 [Example 55]", "human FAAH (Homo sapiens)", 6.04],
  ["O=C(CCCC1CCN(C(=O)Cc2ccc(Cl)cc2)CC1)c1ncco1 [Example 40]", "human FAAH (Homo sapiens)", 7.37],
  ["CCCCS(=O)(=O)N1CCC(CCCC(=O)c2ncco2)CC1 [Example 58]", "human FAAH (Homo sapiens)", 7.22],
  ["Cc1cccc(CN2CCC(CCCC(=O)c3ncco3)CC2)c1C [Example 94]", "human FAAH (Homo sapiens)", 6.40]
]}

Request: Give the measured pIC50 of CC(C)(C)c1ccc(CN2CCC(CCCC(=O)c3ncco3)CC2)cc1 [Example 83] .
Response: 8.15

Request: Also O=C(CCCC1CCN(Cc2ccc(Cl)c(C(F)(F)F)c2)CC1)c1ncco1 [Example 133] , if possible.
Response: 6.34

====

Target: human FAAH (Homo sapiens)
Construct: expressed in transfected cells
Assay: Assay Method 1: FAAH assay, hydrolysis of 3H-anandamide by homogenate of SK-N-MC cells transfected with human FAAH
Assay type: biochemical
Conditions: human FAAH; T84 or transfected SK-N-MC cell homogenate; 3H-AEA tracer 80 nM; rt 1 h; pH 9; read-out: Assay 1 IC50
Description: A. Transfection of Cells with Human FAAH A 10-cm tissue culture dish with a confluent monolayer of SK-N-MC cells was split 2 days (d) prior to transfection. Using sterile technique, the media was removed and the cells were detached from the dish by the addition of trypsin. One fifth of the cells were then placed onto a new 10-cm dish. […] After 10 d, dishes were analyzed for surviving colonies of cells. […]
quantity.name: IC50 (nM)
Please state the figure in nM; there is no need to write the unit.

Please review the following examples before continuing.
{"columns": ["molecule", "measurement"],
 "data": [
  ["CCCCCCCCCN1CCC(CCCC(=O)c2ncco2)CC1 [Example 127]", 8],
  ["O=C(CCCC1CCN(Cc2ccc(Br)nc2)CC1)c1ncco1 [Example 76]", 400]
]}

Request: Request body: readout IC50, system human FAAH (Homo sapiens), query Cc1ccccc1CCC(=O)N1CCC(CCCC(=O)c2ncco2)CC1 [Example 45] . Return the value.
Response: 109

Request: Cool, now O=C(CCCC1CCN(Cc2ccc(F)cc2)CC1)c1ncco1 [Example 7]
Response: 850

Request: Okay, and O=C(CCCC1CCN(Cc2ccc3ccccc3c2)CC1)c1ncco1 [Example 20] ?
Response: 8

Request: Entry to check: O=C(CCCC1CCN(C(=O)Cc2ccccc2)CC1)c1ncco1 [Example 27]
Response: 500

Request: Next molecule: O=C(CCCC1CCN(Cc2ccc(C3CCCCC3)cc2)CC1)c1ncco1 [Example 101]
Response: 23
